# Assay method text: clinical
# Setup conditions: human, in vivo, iv, 6 mg/m2
Recorded metric: AUC(0-inf) (µg·h/mL)

compound="CC(=O)O[C@@]12CO[C@@H]1C[C@H](O)[C@@]1(C)C(=O)[C@H](O)C3=C(C)[C@@H](OC(=O)[C@H](OC(=O)CN4CCN(C)CC4)[C@@H](NC(=O)OC(C)(C)C)c4ccccc4)C[C@@](O)([C@@H](OC(=O)c4ccccc4)[C@H]21)C3(C)C [TD-1]" value_measured=252

----------
half-life values by entry
# Assay method text: clinical
# Setup conditions: human, in vivo, iv, 80 mg/m2, t1/2
Recorded metric: half-life (h)

smiles_repr=CC(=O)O[C@@]12CO[C@@H]1C[C@H](O)[C@@]1(C)C(=O)[C@H](O)C3=C(C)[C@@H](OC(=O)[C@H](OC(=O)CN4CCN(C)CC4)[C@@H](NC(=O)OC(C)(C)C)c4ccccc4)C[C@@](O)([C@@H](OC(=O)c4ccccc4)[C@H]21)C3(C)C value_measured=26.7
smiles_repr=CC(=O)O[C@@]12CO[C@@H]1C[C@H](O)[C@@]1(C)C(=O)[C@H](O)C3=C(C)[C@@H](OC(=O)[C@H](O)[C@@H](NC(=O)OC(C)(C)C)c4ccccc4)C[C@@](O)([C@@H](OC(=O)c4ccccc4)[C@H]21)C3(C)C value_measured=28.8
